- Tested on: HOP-62 NSCLC
- measurement_protocol: NCI-60 one-dose screen, 48 h (100 = growth as untreated, 0 = no growth, -100 = all killed)
- measurement_parameters: 10 µM unless noted
The panel holds about 83,000 compounds, 20% with a hit somewhere; the sample as a whole holds those more often.
Threshold check on growth: at or above 80% gives TRUE, strictly below gives FALSE.

Take a look at these entries with their results.
1) CN1CCN(c2ccc3nc(-c4cc(C(C)(C)C)c(O)c(C(C)(C)C)c4)[nH]c3c2)CC1    FALSE
2) CCn1cc(C2NC(=O)c3ccccc3N2)c2cccc(C)c21 (stereo unspecified)    FALSE
3) Nc1cc(N)c2cccnc2c1O    FALSE
4) O=S(=O)(c1cccc(NC2=Nc3cccc4cccc2c34)c1)N1CCCC1    TRUE
5) C=CCn1c(SCC(=O)Nc2ccc(C(=O)/C=C/c3cc(OC)c(OC)c(OC)c3)cc2)nnc1-c1cc(OC)c(OC)c(OC)c1    FALSE
6) Clc1cc(Cl)cc(N2N=C(c3cccc(Nc4ccncc4)c3)CC2c2ccccc2)c1 (stereo unspecified)    FALSE
7) COc1ccc(C(=O)c2cc3c(N)c(C(=O)Nc4cccc5ccccc45)sc3nc2C)cc1    FALSE
8) O=C(c1ccccc1)N1N=C(c2ccc(-n3ccc(C(F)(F)F)n3)cc2)CC1c1ccc[nH]1 (stereo unspecified)    TRUE

// inclusive: growth at least 80%? input: "O=CNc1cc(Cl)cc(Cl)c1"
TRUE

// inclusive: growth at least 80%? input: "COc1ccc(-c2cnnc3c(-c4cccc(C(F)(F)F)c4)cnn23)cc1"
FALSE

// inclusive: growth at least 80%? input: Clc1ccc(C2CC(c3cccc(Nc4ccncc4)c3)=NN2c2ccccc2)cc1 (stereo unspecified)
FALSE

// inclusive: growth at least 80%? input: "N#Cc1c(NC(=O)c2cccc(Br)c2)sc2c1CCCC2"
TRUE

// inclusive: growth at least 80%? input: "Nc1ncc(C#Cc2cncc(NC(=O)c3cccc(C(F)(F)F)c3)c2)c2cccnc12"
FALSE

// inclusive: growth at least 80%? input: "O=C(CN1CCOCC1)Nc1ccc2ncnc(Nc3ccc(OCc4cccc(F)c4)c(Cl)c3)c2c1"
TRUE

// inclusive: growth at least 80%? input: CC[N+](CC)(CCCC(C)[N+]1(Cc2ccccc2)C(C)=CC=C1C)Cc1ccccc1 (stereo unspecified)
TRUE

// inclusive: growth at least 80%? input: COc1cc(C2CC(c3cccc(Nc4ccncc4)c3)=NN2c2ccc(Cl)cc2)cc(OC)c1OC (stereo unspecified)
FALSE

// inclusive: growth at least 80%? input: CCCCCCCCN1C(=O)/C(=c2\sc3n(c2=O)C2C(NN=3)N(CC)C(=O)N2CC)c2ccccc21 (stereo unspecified)
FALSE

// inclusive: growth at least 80%? input: "COc1nc(N)nc(-n2c(-c3ccc(C)cc3)nc3ccccc32)c1NCc1ccc(C)cc1"
TRUE

// inclusive: growth at least 80%? input: "CC1(C)CCCN1CCCN1c2ccccc2Sc2ccc(Cl)cc21"
FALSE

// inclusive: growth at least 80%? input: "CCC(=O)c1ccc(O)c(OC)c1"
TRUE

// inclusive: growth at least 80%? input: CCCCCCC/C=C/[C@H]1O[C@]2(O)C(=O)C=C3C[C@@H](O[C@@H]4O[C@H](CO)[C@@H](O)C(O)[C@@H]4O)C[C@@H]3[C@H]2C=C1C (stereo partly specified)
FALSE

###

- Test system: RPMI-8226 leukemia
- measurement_protocol: NCI-60 one-dose screen, 48 h (100 = growth as untreated, 0 = no growth, -100 = all killed)
- measurement_parameters: 10 µM unless noted
The panel holds about 83,000 compounds, 20% with a hit somewhere; the sample as a whole holds those more often.
Threshold check on growth: at or above 20% gives Satisfied, strictly below gives Not satisfied.

1) Fc1ccc(C2CC(c3cccc(Nc4ccncc4)c3)=NN2c2cc(Cl)cc(Cl)c2)cc1 (stereo not given)    Satisfied
2) CCCCCCCCCCCCC1CCC/C=C\CCC(=O)O1 (stereo not given)    Satisfied
3) CN1CCN(c2cc(F)c(NC3=C(Cl)C(=O)c4ncccc4C3=O)c(F)c2)CC1    Not satisfied
4) COc1cc(Nc2cc(O)c3c(=O)cc(-c4ccccc4)oc3c2)cc(OC)c1    Not satisfied
5) CCOC(=O)C1CC(=O)c2cc(OC)c(OC)cc2C1 (stereo not given)    Satisfied

Next, consider the following molecule.
// inclusive: growth at least 20%? input: CN(C)C(C(N)=O)c1ccc(Cl)cc1 (stereo not given)
Satisfied

###

- Test system: OVCAR-4 ovarian
- measurement_protocol: NCI-60 one-dose screen, 48 h
- measurement_parameters: 10 µM unless noted
The panel holds about 83,000 compounds, 20% with a hit somewhere; the sample as a whole holds those more often. Active and inactive are the calls of the source. The calls were made as follows: active = growth percent below 10; inactive = the rest.
Output constraint: value belongs to active, inactive

1. CCOC(=O)C1CC(=O)c2cc(OC)c(OC)cc2C1 (centres undefined)    inactive
2. CC[C@H](CC[C@@H](C)[C@H]1CC[C@H]2[C@@H]3CC=C4C[C@@H](OCCc5nn[nH]n5)CC[C@]4(C)[C@H]3CC[C@]12C)C(C)C    inactive

Given "Cc1nc2sc(C(=O)Nc3cccc(Br)c3)c(N)c2cc1C(=O)c1ccc(C(F)(F)F)cc1" , state the outcome it received in this test.
active

Given "Cn1ncc2c(Nc3ccccc3Cl)nc(Cl)nc21" , state the outcome it received in this test.
inactive

Given "CCNNC(=O)[C@@H]1[C@H](c2cc(OC)c(OC)c(OC)c2)c2cc3c(cc2[C@H](O)[C@H]1CO)OCO3" , state the outcome it received in this test.
inactive

Given "C=Cc1cc[n+](CCCCCCCCCCCC)cc1" , state the outcome it received in this test.
inactive

Given "CCOC(=O)c1c(O)cc(-c2ccccc2)cc1-c1sc(N(C)Cc2ccccc2)nc1Cl" , state the outcome it received in this test.
inactive

Given "COc1nc(N)nc(-n2c(-c3ccc(C)cc3)nc3ccccc32)c1NCc1ccc(C)cc1" , state the outcome it received in this test.
inactive

Given "O=C(N/N=C/c1ccc(F)cc1)c1ccccc1Nc1cccc(C(F)(F)F)c1" , state the outcome it received in this test.
inactive

###

- System: SK-MEL-28 melanoma
- measurement_protocol: NCI-60 one-dose screen, 48 h
- measurement_parameters: 10 µM unless noted
Compounds without any hit were thinned out: in the full panel of roughly 83,000, 20% have a hit. Calls of active or inactive are those of the source. The calls were made as follows: active = growth percent below 10; inactive = the rest.
Output constraint: value belongs to 1 (yes) = active, 0 (no) = inactive

Take a look at these entries with their results.
1. COc1ccccc1OCC(=O)N1CCCCCC1    0 (no)
2. O=C(CSc1nc2sc3c(c2c(=O)n1Cc1ccccc1)CCCC3)N1CCN(c2ccccc2)CC1    0 (no)
3. N#CSCC1CC(O)(c2ccccc2)C(c2ccccc2)C(c2ccc(F)cc2)O1 (stereo not given)    1 (yes)
4. c1ccc(-c2nnc(Nc3ccc4c(c3)OCCO4)o2)c(NCc2ccncc2)c1    0 (no)

Given "O=C1/C(=C/c2ccc(O)cc2)COc2ccc(-c3ccccc3)cc21" , state the outcome it received in this test.
0 (no)

Given "CC(=O)c1cc2c(N)c(C(=O)Nc3cncc4ccccc34)sc2nc1C" , state the outcome it received in this test.
0 (no)

Given "CN(C)C(=O)c1cc2cnc(Nc3ccc(-c4csc5c(=O)cc(N6CCOCC6)oc45)cc3)nc2n1C1CCCC1" , state the outcome it received in this test.
1 (yes)

###

- Test system: HT29 colon
- measurement_protocol: NCI-60 one-dose screen, 48 h (100 = growth as untreated, 0 = no growth, -100 = all killed)
- measurement_parameters: 10 µM unless noted
This is part of a sample that, as a whole, favours compounds with a hit. Of some 83,000 tested, about 20% had one in any assay.
value_kind: growth (%)
One number for each entry, in %.

1. BrC(Br)(Br)c1cnc2ccccc2n1    -65.1
2. CNC(=O)Nc1ccc(-c2nc(N3CCOCC3)nc3c2cnn3C2CCOCC2)cc1    6.44
3. CCCCCCN(C)Cc1ccc(OCCOc2ccc(CN(C)CCCCCC)cc2)cc1    1.29
4. CC(=O)c1c[nH]c2ccc(-c3ccnc(Nc4ccc(NC(=O)C5CCCC5)c(CN5CCOCC5)c4)n3)cc12    6.97

Give growth for the following compound: COC(=O)CCCCCCCCC1(C)C=CC(C(C)O)=CC1 (stereo not given)
99.9

###

- System: DU-145 prostate
- measurement_protocol: NCI-60 one-dose screen, 48 h (100 = growth as untreated, 0 = no growth, -100 = all killed)
- measurement_parameters: 10 µM unless noted
The panel holds about 83,000 compounds, 20% with a hit somewhere; the sample as a whole holds those more often.
Could you please report measured growth for the items listed next?
Answers are plain numbers, in %.

The cases that follow already have their growth on record.
1) CC(=O)c1c(-c2ccc(OC(F)(F)F)cc2)nc2ccccn12    101
2) O=C(NCCN1CCOCC1)OCc1nc2nc(Cl)nc(N3CCOCC3)c2[nH]1    8.23
3) CN(C)C(C(N)=O)c1ccc(Cl)cc1 (centres undefined)    107
4) CN1CCN(CC#CCNC(=O)[C@]23CCC(C)(C)C[C@H]2C2=CC[C@@H]4[C@@]5(C)Cc6c([nH]c7ccccc67)C(C)(C)[C@@H]5CC[C@@]4(C)[C@]2(C)CC3)CC1    61.9
5) CNC(=O)c1c(NC(=O)c2ccc(C(C)C)cc2)sc2c(CN(C)C)c(O)ccc12    97.4

Dear colleague, could you please provide growth for the compounds listed below?
1. CC(=O)[C@@H]1CC[C@]2(C(=O)n3ccnc3)CC[C@]3(C)[C@H](CC[C@@H]4[C@@]5(C)Cc6c([nH]c7ccccc67)C(C)(C)[C@@H]5CC[C@]43C)[C@@H]12
2. COc1cc(NCC(O)CN(CC(C)C)C2CCCC2)c2ncccc2c1 (centres undefined)
3. Cc1ccc2nc3c(cc2c1)CSc1nnc(-c2ccc[nH]c2=S)n1N3
4. O=C1Nc2cc(-c3ccncc3)ccc2/C1=C/c1ccc[nH]1

98.5
98.4
113
88.1

These measurements were taken from PubChem BioAssay (NCI).
